Here, each record is paired with measured combination Emax data.
- Tested on: HCT-15 (Colorectal Carcinoma)
- ASSAY: combination Emax (second highest fraction inhibited in the dose matrix, 72 h); higher = more inhibition; extreme values may be limits of the assay
QUANTITY MEASURED: combination Emax

1. CN(C)CCCOc1ccc(-c2ccc3ncc4c(c3c2)n(C2CCOCC2)c(=O)n4C)cn1 [AZD0156] + C=CCn1c(=O)c2cnc(Nc3ccc(N4CCN(C)CC4)cc3)nc2n1-c1cccc(C(C)(C)O)n1 [AZD1775] (first compound max 1 µM, partner max 1 µM) = 0.726
2. CC(=O)c1c(C)c2cnc(Nc3ccc(N4CCNCC4)cn3)nc2n(C2CCCC2)c1=O [Palbociclib] + CN(CC[C@H](CSC1=CC=CC=C1)NC2=C(C=C(C=C2)S(=O)(=O)NC(=O)C3=CC=C(C=C3)N4CCC(CC4)[C@H](C5=CC=CC=C5C6=CC=C(C=C6)Cl)O)S(=O)(=O)C(F)(F)F)CCO [AZD4320] (first compound max 10 µM, 7x7, partner max 1 µM) = 0.726
3. C[C@@H]1COCCN1c1cc(C2([S@](C)(=N)=O)CC2)nc(-c2ccnc3[nH]ccc23)n1 [AZD6738] + O=C(c1cc(Cc2n[nH]c(=O)c3ccccc23)ccc1F)N1CCN(C(=O)C2CC2)CC1 [Olaparib] (first compound max 10 µM, 7x7, partner max 10 µM) = 0.832

* * *

- System: SU-DHL-10 (B-Cell Non-Hodgkin's Lymphoma)
- ASSAY: combination Emax (second highest fraction inhibited in the dose matrix, 72 h); higher = more inhibition; extreme values may be limits of the assay
QUANTITY MEASURED: combination Emax

1. CC1(C)CCC(CN2CCN(c3ccc(C(=O)NS(=O)(=O)c4ccc(NCC5CCOCC5)c([N+](=O)[O-])c4)c(Oc4cnc5[nH]ccc5c4)c3)CC2)=C(c2ccc(Cl)cc2)C1 [Venetoclax] + C=CCn1c(=O)c2cnc(Nc3ccc(N4CCN(C)CC4)cc3)nc2n1-c1cccc(C(C)(C)O)n1 [AZD1775] (first compound max 1 µM, partner max 1 µM) = 0.967
2. Cc1c2c(nn1C)CSCc1cc(n(C)n1)CSc1cc(c3ccccc3c1)OCCCc1c(C(=O)O)n(C)c3c-2c(Cl)ccc13 [AZD5991] + CN(C)CCCOc1ccc(-c2ccc3ncc4c(c3c2)n(C2CCOCC2)c(=O)n4C)cn1 [AZD0156] (first compound max 1 µM, 7x7, partner max 1 µM) = 1

* * *

Quick list: combination Emax per entry.
- Test system: SK-PN-DW (Other Solid Carcinomas)
- ASSAY: combination Emax (second highest fraction inhibited in the dose matrix, 72 h); higher = more inhibition; extreme values may be limits of the assay
QUANTITY MEASURED: combination Emax

1. Cc1cc2ncnn2cc1Nc1ncc2c(n1)n(C1CCOCC1)c(=O)n2C [AZD7648] + COc1cc([C@@H]2c3cc4c(cc3[C@@H](O[C@@H]3O[C@@H]5CO[C@@H](C)O[C@H]5[C@H](O)[C@H]3O)[C@H]3COC(=O)[C@H]23)OCO4)cc(OC)c1O [Etoposide] (first compound max 10 µM, 7x7, partner max 10 µM) = 0.918
2. CS(=O)(=O)CCNCc1ccc(-c2ccc3ncnc(Nc4ccc(OCc5cccc(F)c5)c(Cl)c4)c3c2)o1 [Lapatinib] + NC1(c2ccc(-c3nc4ccn5c(=O)[nH]nc5c4cc3-c3ccccc3)cc2)CCC1 [MK-2206] (first compound max 10 µM, 7x7, partner max 10 µM) = 0.933
3. Cc1c2c(nn1C)CSCc1cc(n(C)n1)CSc1cc(c3ccccc3c1)OCCCc1c(C(=O)O)n(C)c3c-2c(Cl)ccc13 [AZD5991] + CS(=O)(=O)CCNCc1ccc(-c2ccc3ncnc(Nc4ccc(OCc5cccc(F)c5)c(Cl)c4)c3c2)o1 [Lapatinib] (first compound max 1 µM, 7x7, partner max 10 µM) = 0.956
4. C=CCn1c(=O)c2cnc(Nc3ccc(N4CCN(C)CC4)cc3)nc2n1-c1cccc(C(C)(C)O)n1 [AZD1775] + C1CN(CCC1(C(=O)N[C@@H](CCO)C2=CC=C(C=C2)Cl)N)C3=NC=NC4=C3C=CN4 [Capivasertib] (first compound max 3 µM, partner max 3 µM) = 0.783
5. Cn1cnc2c(F)c(Nc3ccc(Br)cc3Cl)c(C(=O)NOCCO)cc21 [Selumetinib] + C=CCn1c(=O)c2cnc(Nc3ccc(N4CCN(C)CC4)cc3)nc2n1-c1cccc(C(C)(C)O)n1 [AZD1775] (first compound max 10 µM, partner max 1 µM) = 0.798
6. C[C@@H](Oc1cc(-c2cnn(C3CCNCC3)c2)cnc1N)c1c(Cl)ccc(F)c1Cl [Crizotinib] + CC1=C(C(=CC=C1)Cl)NC(=O)C2=CN=C(S2)NC3=CC(=NC(=N3)C)N4CCN(CC4)CCO [Dasatinib] (first compound max 10 µM, 7x7, partner max 2 µM) = 0.763
7. CC(=O)c1c(C)c2cnc(Nc3ccc(N4CCNCC4)cn3)nc2n(C2CCCC2)c1=O [Palbociclib] + Cn1cnc2c(F)c(Nc3ccc(Br)cc3Cl)c(C(=O)NOCCO)cc21 [Selumetinib] (first compound max 10 µM, 7x7, partner max 10 µM) = 0.261

* * *

Listed here: items and their measured Bliss excess.
- Test system: WM793B (Melanoma);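 note: after 72 h of two-drug dosing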
- ASSAY: Bliss excess, mean over the matrix (fraction); higher = more synergy
QUANTITY MEASURED: Bliss excess

1) C[C@@H]1COCCN1c1cc(C2([S@](C)(=N)=O)CC2)nc(-c2ccnc3[nH]ccc23)n1 [AZD6738] + O=C(c1cc(Cc2n[nH]c(=O)c3ccccc23)ccc1F)N1CCN(C(=O)C2CC2)CC1 [Olaparib] (first compound max 10 µM, 7x7, partner max 10 µM) = -0.0214
2) CC1(C)CCC(CN2CCN(c3ccc(C(=O)NS(=O)(=O)c4ccc(NCC5CCOCC5)c([N+](=O)[O-])c4)c(Oc4cnc5[nH]ccc5c4)c3)CC2)=C(c2ccc(Cl)cc2)C1 [Venetoclax] + C[C@@H](Nc1cc(F)cc(F)c1)c1cc(C(=O)N(C)C)cc2c(=O)cc(N3CCOCC3)oc12 [AZD8186] (first compound max 1 µM, 7x7, partner max 3 µM) = -0.016
3) COc1cccc(OCCCN)c1-c1cc(Nc2cnc(C#N)cn2)n[nH]1 [Prexasertib] + Cc1cc2ncnn2cc1Nc1ncc2c(n1)n(C1CCOCC1)c(=O)n2C [AZD7648] (first compound max 1 µM, 7x7, partner max 10 µM) = -0.0169
4) C=CCn1c(=O)c2cnc(Nc3ccc(N4CCN(C)CC4)cc3)nc2n1-c1cccc(C(C)(C)O)n1 [AZD1775] + O=C(c1cc(Cc2n[nH]c(=O)c3ccccc23)ccc1F)N1CCN(C(=O)C2CC2)CC1 [Olaparib] (first compound max 1 µM, partner max 10 µM) = -0.0236

* * *

- Tested on: NB12 (Neuroblastoma)
- ASSAY: combination Emax (second highest fraction inhibited in the dose matrix, 72 h); higher = more inhibition; extreme values may be limits of the assay
The following molecules are shown together with reported combination Emax values.
QUANTITY MEASURED: combination Emax

1) NC1(C(=O)N[C@@H](CCO)c2ccc(Cl)cc2)CCN(c2ncnc3[nH]ccc23)CC1 [Capivasertib] + CC(C)n1c(=O)n(C)c2cnc3cc(F)c(-c4ccc(OCCCN5CCCCC5)nc4)cc3c21 [AZD1390] (first compound max 10 µM, 7x7, partner max 0.3 µM) = 0.504
2) CN(C)CCCOc1ccc(-c2ccc3ncc4c(c3c2)n(C2CCOCC2)c(=O)n4C)cn1 [AZD0156] + O=C(c1cc(Cc2n[nH]c(=O)c3ccccc23)ccc1F)N1CCN(C(=O)C2CC2)CC1 [Olaparib] (first compound max 3 µM, partner max 3 µM) = 0.363
3) CC1(C)CCC(CN2CCN(c3ccc(C(=O)NS(=O)(=O)c4ccc(NCC5CCOCC5)c([N+](=O)[O-])c4)c(Oc4cnc5[nH]ccc5c4)c3)CC2)=C(c2ccc(Cl)cc2)C1 [Venetoclax] + CS(=O)(=O)CCNCc1ccc(-c2ccc3ncnc(Nc4ccc(OCc5cccc(F)c5)c(Cl)c4)c3c2)o1 [Lapatinib] (first compound max 1 µM, 7x7, partner max 10 µM) = 0.915

* * *

- System: OPM-2 (Plasma Cell Myeloma)
- ASSAY: combination Emax (second highest fraction inhibited in the dose matrix, 72 h); higher = more inhibition; extreme values may be limits of the assay
QUANTITY MEASURED: combination Emax

1. CCN(CCO)CCCOc1ccc2c(Nc3cc(CC(=O)Nc4cccc(F)c4)[nH]n3)ncnc2c1 [AZD2811] + C=CCn1c(=O)c2cnc(Nc3ccc(N4CCN(C)CC4)cc3)nc2n1-c1cccc(C(C)(C)O)n1 [AZD1775] (first compound max 1 µM, partner max 1 µM) = 0.809
2. CC1(C)CCC(CN2CCN(c3ccc(C(=O)NS(=O)(=O)c4ccc(NCC5CCOCC5)c([N+](=O)[O-])c4)c(Oc4cnc5[nH]ccc5c4)c3)CC2)=C(c2ccc(Cl)cc2)C1 [Venetoclax] + C[C@@H]1COCCN1C2=NC(=NC(=C2)C3(CC3)[S@](=N)(=O)C)C4=C5C=CNC5=NC=C4 [AZD6738] (first compound max 1 µM, 7x7, partner max 10 µM) = 0.943
3. N#Cc1cnc(Nc2cc(NC[C@H]3CNCCO3)c(C(F)(F)F)cn2)cn1 [SRA737] + CCc1c2c(nc3ccc(O)cc13)-c1cc3c(c(=O)n1C2)COC(=O)[C@]3(O)CC [SN-38] (first compound max 10 µM, 7x7, partner max 0.3 µM) = 0.926
4. O=C(c1cc(Cc2n[nH]c(=O)c3ccccc23)ccc1F)N1CCN(C(=O)C2CC2)CC1 [Olaparib] + Cc1c2c(nn1C)CSCc1cc(n(C)n1)CSc1cc(c3ccccc3c1)OCCCc1c(C(=O)O)n(C)c3c-2c(Cl)ccc13 [AZD5991] (first compound max 10 µM, 7x7, partner max 1 µM) = 1
